Molecular target: T1, catalytic subunit of human protein kinase CK2 (human, UniProt P68400 1-391, NT-647 dye (NanoTemper Protein Labeling Kit RED), in the MST experiments only)
T1 construct: catalytic subunit (alpha) of human protein kinase CK2; The His tag is named only for the pull-down (immobilised on cobalt resin); also called hCK2α; CK2α
T1 sequence (P68400 whole entry): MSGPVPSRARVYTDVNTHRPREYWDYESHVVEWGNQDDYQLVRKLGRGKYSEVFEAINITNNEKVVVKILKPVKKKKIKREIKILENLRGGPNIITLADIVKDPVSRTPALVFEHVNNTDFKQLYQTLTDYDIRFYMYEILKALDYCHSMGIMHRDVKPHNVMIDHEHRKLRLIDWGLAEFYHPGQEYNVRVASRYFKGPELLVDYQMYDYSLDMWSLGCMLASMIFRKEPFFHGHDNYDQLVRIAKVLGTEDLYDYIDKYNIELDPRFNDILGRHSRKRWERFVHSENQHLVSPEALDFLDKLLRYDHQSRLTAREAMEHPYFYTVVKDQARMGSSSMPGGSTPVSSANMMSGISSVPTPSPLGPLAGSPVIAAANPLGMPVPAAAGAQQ
Experiment: other fluorescence titration; nanoDSF (Prometheus NT.48): 350 nm/330 nm fluorescence ratio at 25 °C (native protein) against peptide concentration; 2.5 μM hCK2α, peptide 300 nM-10 mM, 25 mM Tris-HCl pH 7, 0.5 M NaCl; single binding site model
Settings: both partners purified
Where no end group is shown, it is not given here.
# Kd per entry
A number alone suffices; assume µM.

[
  {
    "binder": "EETEEE-NH2 (source: synthetic peptide (solid-phase synthesis, purified by HPLC); in the pull-down as a member of the synthetic library) [EETEEE-NH2]",
    "units label": "µM",
    "Kd": 960
  },
  {
    "binder": "EESEEE-NH2 (source: synthetic peptide (solid-phase synthesis, purified by HPLC); in the pull-down as a member of the synthetic library) [EESEEE-NH2]",
    "units label": "µM",
    "Kd": 1580
  },
  {
    "binder": "KESEEE-NH2 (source: synthetic peptide (solid-phase synthesis, purified by HPLC)) [KESEEE-NH2]",
    "units label": "µM",
    "Kd": 350
  }
]

Consider the record given below.
Complete the entry with Kd for KETEEE-NH2 (source: synthetic peptide (solid-phase synthesis, purified by HPLC); in the pull-down as a member of the synthetic library) [KETEEE-NH2]
950
